Measured pIC50, listed per entry.
# TEST SYSTEM: rat TRPA1 (Rattus norvegicus, UniProt Q6RI86)
# Construct: expressed in transfected cells; host or cells: HEK-293
# Sequence (Q6RI86 whole entry): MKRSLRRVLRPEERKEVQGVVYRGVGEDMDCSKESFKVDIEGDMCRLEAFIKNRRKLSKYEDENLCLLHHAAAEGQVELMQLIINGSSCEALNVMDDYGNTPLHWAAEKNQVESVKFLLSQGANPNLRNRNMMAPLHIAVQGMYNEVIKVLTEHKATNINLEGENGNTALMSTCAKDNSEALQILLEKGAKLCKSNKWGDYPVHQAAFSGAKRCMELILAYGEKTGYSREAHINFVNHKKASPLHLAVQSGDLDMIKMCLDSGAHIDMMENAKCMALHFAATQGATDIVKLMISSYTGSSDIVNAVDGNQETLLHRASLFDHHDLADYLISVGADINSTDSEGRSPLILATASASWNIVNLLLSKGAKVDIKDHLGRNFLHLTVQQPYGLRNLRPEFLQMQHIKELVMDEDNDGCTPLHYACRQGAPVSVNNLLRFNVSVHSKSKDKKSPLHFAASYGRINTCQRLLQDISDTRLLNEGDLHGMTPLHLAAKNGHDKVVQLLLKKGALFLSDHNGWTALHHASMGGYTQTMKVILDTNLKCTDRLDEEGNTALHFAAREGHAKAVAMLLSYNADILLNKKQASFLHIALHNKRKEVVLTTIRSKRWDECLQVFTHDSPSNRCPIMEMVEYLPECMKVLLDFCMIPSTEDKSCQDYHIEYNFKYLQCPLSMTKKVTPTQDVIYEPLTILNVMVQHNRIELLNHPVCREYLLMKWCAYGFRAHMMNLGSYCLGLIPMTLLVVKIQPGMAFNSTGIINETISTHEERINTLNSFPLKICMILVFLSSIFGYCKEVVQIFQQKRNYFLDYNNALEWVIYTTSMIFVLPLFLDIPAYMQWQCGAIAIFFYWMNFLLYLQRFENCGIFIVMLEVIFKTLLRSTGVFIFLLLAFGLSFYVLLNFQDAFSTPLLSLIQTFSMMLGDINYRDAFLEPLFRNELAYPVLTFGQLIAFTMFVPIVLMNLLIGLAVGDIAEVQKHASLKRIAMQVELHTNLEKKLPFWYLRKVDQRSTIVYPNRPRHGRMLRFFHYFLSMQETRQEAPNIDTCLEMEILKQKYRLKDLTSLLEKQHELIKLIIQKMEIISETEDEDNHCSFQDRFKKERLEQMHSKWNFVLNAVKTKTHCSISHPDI
# ASSAY OVERVIEW: TRPA1-mediated elevation of intracellular Ca2+ (Fluo-4) in transfected HEK-293 cells
# Assay type: cell-based
# Method: Assays of rat TRPA1, TRPV2, TRPV3, TRPV4, and TRPM8 or human TRPV1 mediated elevation of intracellular Ca ^2+ in transfected HEK-293 cells were performed with a continuous monitoring of [Ca ^2+]i during the experiments. […] Cell fluorescence before and after the addition of various concentrations of test compounds was measured, normalizing the effects against the response to ionomycin (IM, 4 μM). […]
pIC50 field: float, defined as -log10 of concentration (mol/L).

{"COMPOUND": "CCCCCCC(C)(C)c1cc(O)c2c(c1)OC(C)(C)[C@@H]1CC=C(C)C[C@@H]21", "pIC50": 5.22}
{"COMPOUND": "CCCCCCC(C)(C)c1cc(O)c2c(c1)OC(C)(CCC=C(C)C)C=C2 (stereo not drawn)", "pIC50": 6.49}

Query: Fill in: pIC50 of CCCCCCC(C)(C)c1cc(O)c2c(c1)OC(C)(C)c1ccc(C)cc1-2 is ___
Result: 5.49

----------
# TEST SYSTEM: rat TRPM8 (Rattus norvegicus, UniProt Q8R455)
# Construct: expressed in transfected cells; host or cells: HEK-293
# Sequence (Q8R455 whole entry): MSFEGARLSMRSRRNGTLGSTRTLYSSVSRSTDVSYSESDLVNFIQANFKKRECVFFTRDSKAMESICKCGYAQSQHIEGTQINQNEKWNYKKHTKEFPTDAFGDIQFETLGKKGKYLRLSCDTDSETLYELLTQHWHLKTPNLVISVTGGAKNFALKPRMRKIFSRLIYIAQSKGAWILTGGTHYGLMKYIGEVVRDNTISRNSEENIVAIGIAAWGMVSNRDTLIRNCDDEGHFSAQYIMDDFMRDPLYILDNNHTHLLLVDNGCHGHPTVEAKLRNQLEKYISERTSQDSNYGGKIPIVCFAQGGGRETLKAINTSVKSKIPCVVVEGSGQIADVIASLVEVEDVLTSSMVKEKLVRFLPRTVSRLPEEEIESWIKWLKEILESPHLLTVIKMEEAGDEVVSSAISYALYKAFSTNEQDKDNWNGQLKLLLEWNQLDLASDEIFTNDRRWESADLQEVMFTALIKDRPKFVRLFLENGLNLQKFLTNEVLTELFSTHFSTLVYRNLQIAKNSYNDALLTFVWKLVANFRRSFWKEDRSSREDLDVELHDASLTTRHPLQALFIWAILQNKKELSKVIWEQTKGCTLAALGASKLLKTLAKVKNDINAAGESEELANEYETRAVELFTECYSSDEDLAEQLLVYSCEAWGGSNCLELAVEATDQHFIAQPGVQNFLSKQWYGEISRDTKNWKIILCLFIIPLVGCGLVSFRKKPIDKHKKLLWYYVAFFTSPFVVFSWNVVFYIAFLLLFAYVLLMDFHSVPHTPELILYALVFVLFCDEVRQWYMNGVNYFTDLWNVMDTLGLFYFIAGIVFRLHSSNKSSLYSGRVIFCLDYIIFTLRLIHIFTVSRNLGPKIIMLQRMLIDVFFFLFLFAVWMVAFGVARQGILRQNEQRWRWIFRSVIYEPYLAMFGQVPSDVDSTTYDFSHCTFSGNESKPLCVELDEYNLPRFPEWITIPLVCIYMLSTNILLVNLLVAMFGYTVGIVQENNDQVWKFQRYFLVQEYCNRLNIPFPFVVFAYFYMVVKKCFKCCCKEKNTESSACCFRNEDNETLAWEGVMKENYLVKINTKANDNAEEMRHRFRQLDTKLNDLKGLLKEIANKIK
# ASSAY OVERVIEW: TRPM8 antagonism of icilin-induced intracellular Ca2+ elevation (Fluo-4) in transfected HEK-293 cells
# Assay type: cell-based
# CONDITION CONTEXT: IC50 TRPM8, antagonist; compound added 5 min before agonist icilin 0.25 μM
Measured IC50, listed per entry.
Kindly provide the numeric value in µM only, without the unit symbol.

Reference set (2 entries):
{"MOLECULE": "CCCCCCC(C)(C)c1cc(O)c2c(c1)OC(C)(C)c1ccc(C)cc1-2 [9b, Depentyl-α,α-dimethylheptyl-cannabinol]", "IC50 [µM]": 0.98}
{"MOLECULE": "CCCCCCC(C)(C)c1cc(O)c(C/C=C(\\C)CCC=C(C)C)c(O)c1 [7b, Depentyl-α,α-dimethylheptyl-cannabigerol]", "IC50 [µM]": 9.2}

Moving on to the next molecule.
Query: Fill in: IC50 of CCCCCCC(C)(C)c1cc(O)c2c(c1)OC(C)(C)[C@@H]1CC=C(C)C[C@@H]21 [6b] is ___
Result: 39.9

----------
# TEST SYSTEM: rat TRPA1 (Rattus norvegicus)
# Construct: expressed in transfected cells; host or cells: HEK-293
# ASSAY OVERVIEW: TRPA1-mediated elevation of intracellular Ca2+ (Fluo-4) in transfected HEK-293 cells
# Assay type: cell-based
# CONDITION CONTEXT: percentage of the effect of 100 μM allylisothiocyanate on [Ca2+]i; HEK-293
OBSERVED PROPERTY: TRPA1 Efficacy (%ITC 100 μM) (%)
Kindly provide the numeric value in % only, without the unit symbol.

Reference set (6 entries):
{"COMPOUND": "CCCCCCC(C)(C)c1cc(O)c2c(c1)OC(C)(C)[C@@H]1CC=C(C)C[C@@H]21 [6b]", "TRPA1 Efficacy (%ITC 100 μM), %": 124.2}
{"COMPOUND": "CCCCCCCc1cc(O)c2c(c1)OC(C)(CCC=C(C)C)C=C2 (stereo not shown) [8c, Depentyl-5-n-heptylcannabichromene]", "TRPA1 Efficacy (%ITC 100 μM), %": 97.8}
{"COMPOUND": "CCCCCCC(C)(C)c1cc(O)c2c(c1)OC(C)(CCC=C(C)C)C=C2 (stereo not shown) [8b]", "TRPA1 Efficacy (%ITC 100 μM), %": 120.4}
{"COMPOUND": "CCCCC(C)(C)c1cc(O)c2c(c1)OC(C)(CCC=C(C)C)C=C2 (stereo not shown) [8d]", "TRPA1 Efficacy (%ITC 100 μM), %": 98.7}
{"COMPOUND": "CCCCCCC(C)(C)c1cc(O)c2c(c1)OC(C)(C)c1ccc(C)cc1-2 [9b, Depentyl-α,α-dimethylheptyl-cannabinol]", "TRPA1 Efficacy (%ITC 100 μM), %": 132.3}
{"COMPOUND": "C=C(C)[C@@H]1CCC(C)=C[C@H]1c1c(O)cc(C(C)(C)CCCCCC)cc1O [1b, Depentyl-α,α-dimethylheptyl-cannabidiol]", "TRPA1 Efficacy (%ITC 100 μM), %": 133.4}

Query: Give recorded TRPA1 Efficacy (%ITC 100 μM) with rat TRPA1 (Rattus norvegicus) for the following compound: CCCCCCC(C)(C)c1cc(O)c(C/C=C(\C)CCC=C(C)C)c(O)c1 [7b, Depentyl-α,α-dimethylheptyl-cannabigerol]
Result: 99.2
